MEASURED ON: CYP2D6 (Homo sapiens)
Sequence (P10635 whole entry, canonical isoform): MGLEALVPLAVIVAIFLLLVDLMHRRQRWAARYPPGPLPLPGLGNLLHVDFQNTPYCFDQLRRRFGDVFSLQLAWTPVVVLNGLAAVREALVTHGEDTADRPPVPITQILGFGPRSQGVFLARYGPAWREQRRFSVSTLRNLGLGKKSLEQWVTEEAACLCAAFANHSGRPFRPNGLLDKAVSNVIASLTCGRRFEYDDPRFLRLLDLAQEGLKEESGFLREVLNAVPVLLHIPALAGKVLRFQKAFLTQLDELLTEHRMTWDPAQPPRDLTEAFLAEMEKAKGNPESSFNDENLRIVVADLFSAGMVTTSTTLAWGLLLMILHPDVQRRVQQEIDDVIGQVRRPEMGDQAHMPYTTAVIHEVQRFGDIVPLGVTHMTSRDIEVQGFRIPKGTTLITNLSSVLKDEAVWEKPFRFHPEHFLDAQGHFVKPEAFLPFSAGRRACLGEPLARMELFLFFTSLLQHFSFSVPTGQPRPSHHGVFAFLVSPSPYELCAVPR
PROCEDURE SUMMARY: CYP isoform inhibition in human liver microsomes (Cyprotex)
Assay type: in vitro ADME
TEST CONTEXT: human, human liver microsomes; 25 µM RD2
Non-standard residues stand in square brackets, D forms with d. Residues, ends and D or L forms follow the SMILES beside them.
PARAMETER MEASURED: inhibition at 25 µM (%)
// units = %; emit number, no label

Look up inhibition at 25 µM for this compound: CC(C)C[C@@H](NC(=O)[C@H](NC(=O)[C@H]1CCCN1)[C@H](C)O)C(=O)N[C@H](Cc1c[nH]cn1)C(=O)N[C@@H](C(=O)N[C@H](Cc1c[nH]cn1)C(=O)N[C@H](CC(N)=O)C(=O)N[C@H](CCCNC(=N)N)C(=O)N[C@H](CCCNC(=N)N)C(=O)N[C@H](CCCNC(=N)N)C(=O)N[C@H](CCCNC(=N)N)C(=O)N[C@H](CCCNC(=N)N)C(N)=O)[C@H](C)O [RD2, ptlhthnrrrrr] (H-[dP][dT][dL][dH][dT][dH][dN][dR][dR][dR][dR][dR]-NH2)
-9.57

###

MEASURED ON: CYP1A (Homo sapiens)
Sequence (P05177 2-516): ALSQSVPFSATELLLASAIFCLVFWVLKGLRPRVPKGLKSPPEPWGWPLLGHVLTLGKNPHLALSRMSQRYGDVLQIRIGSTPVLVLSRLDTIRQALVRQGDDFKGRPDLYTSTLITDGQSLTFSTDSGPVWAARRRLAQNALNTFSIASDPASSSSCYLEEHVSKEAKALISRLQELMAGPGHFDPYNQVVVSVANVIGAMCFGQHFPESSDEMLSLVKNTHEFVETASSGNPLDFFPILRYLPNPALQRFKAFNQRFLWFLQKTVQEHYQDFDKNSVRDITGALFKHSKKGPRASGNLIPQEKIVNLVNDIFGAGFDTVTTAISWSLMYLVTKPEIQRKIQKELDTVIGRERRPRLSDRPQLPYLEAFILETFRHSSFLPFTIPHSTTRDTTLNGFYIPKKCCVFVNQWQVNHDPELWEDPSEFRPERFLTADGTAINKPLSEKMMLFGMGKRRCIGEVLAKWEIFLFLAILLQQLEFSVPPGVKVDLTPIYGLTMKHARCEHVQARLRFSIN
PROCEDURE SUMMARY: CYP isoform inhibition in human liver microsomes (Cyprotex)
TEST CONTEXT: human, human liver microsomes
Non-standard residues stand in square brackets, D forms with d. Residues, ends and D or L forms follow the SMILES beside them.
PARAMETER MEASURED: inhibition at 10 µM
Answer format: value, then unit.

Look up inhibition at 10 µM for this compound: CC(C)C[C@@H](NC(=O)[C@H](NC(=O)[C@H]1CCCN1)[C@H](C)O)C(=O)N[C@H](Cc1c[nH]cn1)C(=O)N[C@@H](C(=O)N[C@H](Cc1c[nH]cn1)C(=O)N[C@H](CC(N)=O)C(=O)N[C@H](CCCNC(=N)N)C(=O)N[C@H](CCCNC(=N)N)C(=O)N[C@H](CCCNC(=N)N)C(=O)N[C@H](CCCNC(=N)N)C(=O)N[C@H](CCCNC(=N)N)C(N)=O)[C@H](C)O [RD2, ptlhthnrrrrr] (H-[dP][dT][dL][dH][dT][dH][dN][dR][dR][dR][dR][dR]-NH2)
-0.842%

###

PROCEDURE SUMMARY: MTT cell viability assay
Assay type: cell-based, rat
TEST CONTEXT: rat, cell viability
Non-standard residues stand in square brackets, D forms with d. Residues, ends and D or L forms follow the SMILES beside them.
PARAMETER MEASURED: viability at 24 h, 2 µM (%)
// units = %; emit number, no label

Look up viability at 24 h, 2 µM for this molecule: CC(C)C[C@@H](NC(=O)[C@H](NC(=O)[C@H]1CCCN1)[C@H](C)O)C(=O)N[C@H](Cc1c[nH]cn1)C(=O)N[C@@H](C(=O)N[C@H](Cc1c[nH]cn1)C(=O)N[C@H](CC(N)=O)C(=O)N[C@H](CCCNC(=N)N)C(=O)N[C@H](CCCNC(=N)N)C(=O)N[C@H](CCCNC(=N)N)C(=O)N[C@H](CCCNC(=N)N)C(=O)N[C@H](CCCNC(=N)N)C(N)=O)[C@H](C)O [RD2, ptlhthnrrrrr] (H-[dP][dT][dL][dH][dT][dH][dN][dR][dR][dR][dR][dR]-NH2)
99
